- studyTarget: Cytochrome P450 3A4 (Homo sapiens, UniProt P08684)
- Sequence (P08684 whole entry): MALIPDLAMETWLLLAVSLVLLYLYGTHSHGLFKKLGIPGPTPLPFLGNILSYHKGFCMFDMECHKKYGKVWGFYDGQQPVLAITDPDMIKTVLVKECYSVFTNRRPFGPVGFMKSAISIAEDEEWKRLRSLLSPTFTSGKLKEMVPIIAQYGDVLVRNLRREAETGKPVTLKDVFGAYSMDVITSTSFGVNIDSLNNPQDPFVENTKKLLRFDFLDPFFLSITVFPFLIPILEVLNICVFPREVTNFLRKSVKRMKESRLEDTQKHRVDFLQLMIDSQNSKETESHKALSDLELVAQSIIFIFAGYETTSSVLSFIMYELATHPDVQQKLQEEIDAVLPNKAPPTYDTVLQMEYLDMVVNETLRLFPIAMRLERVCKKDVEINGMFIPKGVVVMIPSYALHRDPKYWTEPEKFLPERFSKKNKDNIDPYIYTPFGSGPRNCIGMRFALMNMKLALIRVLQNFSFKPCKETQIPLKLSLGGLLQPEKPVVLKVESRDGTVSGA
- assayProtocol: Inhibition of recombinant CYP3A4 NF-14 expressed in Escherichia coli assessed as formation of 6-beta-hydroxytestosterone using testosterone as substrate after 5 mins by HPLC based UV method
Label true (1) when Ki < 8 µM; otherwise false (0).

As a guide, the following entries are already answered.
1. O=C(Nc1ccccc1)c1cc(-c2ccccc2)nc2ccccc12    true (1)
2. O=C(Nc1ccccc1)c1cc(-c2cnccn2)nc2ccccc12    true (1)
3. COc1ccc(NC(=O)c2cc(-c3ccccn3)nc3ccccc23)cc1    false (0)
4. O=C(Nc1ccccc1)c1cc(-c2ccncn2)nc2ccccc12    true (1)
5. CN(C)c1ccc(NC(=O)c2cc(-c3ccncn3)nc3ccccc23)cc1    false (0)
6. CN(C)c1ccc(NC(=O)c2cc(-c3cnccn3)nc3ccccc23)cc1    false (0)
7. O=C(Nc1ccccc1)c1cc(-c2ccccn2)nc2ccccc12    false (0)
8. CN(C)c1ccc(NC(=O)c2cc(-c3ccccn3)nc3ccccc23)cc1    false (0)
9. COc1ccc(NC(=O)c2cc(-c3ccncc3)nc3ccccc23)cc1    true (1)
10. COc1ccc(NC(=O)c2cc(-c3ccncn3)nc3ccccc23)cc1    true (1)

*Q* In the record for "Cc1ccc(NC(=O)c2cc(-c3ccncc3)nc3ccccc23)cc1" , is Ki less than 8 µM?
*A* true (1)

*Q* In the record for "Cc1ccc(NC(=O)c2cc(-c3cnccn3)nc3ccccc23)cc1" , is Ki less than 8 µM?
*A* true (1)

*Q* In the record for "COc1ccc(NC(=O)c2cc(-c3cnccn3)nc3ccccc23)cc1" , is Ki less than 8 µM?
*A* false (0)
